Hey, just so you know, these numbers are from ChEMBL document CHEMBL1961873.

target_system: Tyrosine-protein kinase Mer (Homo sapiens);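 note: reported value is a mean inhibition of MER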
stated_conditions: at 0.1 µM
Below is a list of entries, each paired with its recorded inhibition value.
value_type: inhibition

1. O=C(O[C@H]1CN[C@H](C#Cc2cc3ncnc(Nc4ccc5c(cnn5Cc5ccccc5)c4)c3s2)C1)N1CCOCC1
1.33%
2. CC1=C(C(=O)Nc2ccc3[nH]ncc3c2)C(c2ccc(F)cc2)N=C(c2ccc(C(F)(F)F)nc2)N1 (stereo unspecified)
1.51%
3. COc1ccc2ncn(-c3cc(O[C@H](C)c4ccccc4C(F)(F)F)c(C(N)=O)s3)c2c1
-0.24%
4. N#Cc1cccc(Nc2ncc(-c3ccccc3)o2)c1
0.53%
5. COc1cccc(Nc2nccc(-c3cnn4ncccc34)n2)c1
1.29%
6. c1cnn2ncc(-c3ccnc(NCCCN4CCOCC4)n3)c2c1
3.19%
7. CN1CCC(n2cnc(-c3ccc(F)cc3)c2-c2ccnc(NCCO)n2)CC1
2.22%
8. NS(=O)(=O)c1ccc(N/N=C2\C(=O)Nc3ccc(C(=O)NCc4ccncc4)cc32)cc1
1.29%
9. Cc1nnc(-c2cccc(-c3ccc(C(=O)NCC4CC4)cc3)c2)o1
0.22%
10. CCN1CCC(C(=O)Nc2n[nH]c3nnc(-c4cccc(F)c4F)cc23)CC1
0.64%
11. Cc1c2ccc(N(C)c3ccnc(Nc4cccc(S(N)(=O)=O)c4)n3)cc2nn1C
17.7%
12. CS(=O)(=O)Nc1ccc(-c2cc(-c3ccccc3)cc(C(N)=O)c2N)cc1
0.78%
13. COc1c(C(N)=O)cc(-c2ccc(Cl)cc2)cc1-c1ccc(S(N)(=O)=O)cc1
2.2%
14. CNC(=O)c1ncccc1Nc1nc(Nc2cc3c(cc2OC)CCCN3C(=O)CN(C)C)nc2[nH]ccc12
0.94%
15. NS(=O)(=O)c1cccc(N/C=C2\C(=O)Nc3ccccc32)c1
3.46%
16. CNC(=O)c1cncc(/C=C/c2ccccc2C)c1
-0.15%
17. Cc1ccc(-c2cc3c(NC(=O)C4CC4)ncnc3o2)cc1
2.35%
18. NS(=O)(=O)c1ccc(N/N=C2\C(=O)Nc3cccc(CCc4ccncc4)c32)cc1
2.62%
19. CS(=O)(=O)Nc1ccc(-c2ccc3c(NC(=O)C4CC4)n[nH]c3c2)cc1
0.84%
20. N#Cc1ccc2c(-c3ccnc(NC4CC4)n3)c(-c3ccc(F)cc3)nn2c1
0.43%
21. COC(=O)Nc1nc2cc(Oc3ccc(NC(=O)Nc4ccccc4)cc3)ccc2[nH]1
1.34%

====

target_system: Tyrosine-protein kinase Srms (Homo sapiens) (UniProt Q9H3Y6)
Sequence (Q9H3Y6 whole entry): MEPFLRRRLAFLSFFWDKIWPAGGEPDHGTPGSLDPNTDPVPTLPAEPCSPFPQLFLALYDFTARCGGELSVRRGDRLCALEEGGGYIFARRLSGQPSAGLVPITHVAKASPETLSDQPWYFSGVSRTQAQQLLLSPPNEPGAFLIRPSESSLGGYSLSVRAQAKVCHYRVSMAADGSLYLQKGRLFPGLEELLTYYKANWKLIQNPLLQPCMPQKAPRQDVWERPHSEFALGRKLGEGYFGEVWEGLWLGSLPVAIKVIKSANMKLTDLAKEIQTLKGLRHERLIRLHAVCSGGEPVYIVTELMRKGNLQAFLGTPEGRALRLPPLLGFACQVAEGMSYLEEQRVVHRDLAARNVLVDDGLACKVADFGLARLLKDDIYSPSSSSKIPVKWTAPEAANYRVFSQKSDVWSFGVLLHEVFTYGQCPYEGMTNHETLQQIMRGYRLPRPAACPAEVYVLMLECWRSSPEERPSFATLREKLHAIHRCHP
stated_conditions: at 1 µM
Description: GSK_PKIS: SRMS mean inhibition at 1 uM [Nanosyn]
Below is a list of entries, each paired with its recorded inhibition value.
value_type: inhibition (%)

1. O=C(O[C@H]1CN[C@H](C#Cc2cc3ncnc(Nc4ccc(OCc5cccc(F)c5)c(Cl)c4)c3s2)C1)N1CCOCC1
-2.76
2. CC1(C)CC(n2cnc(-c3ccc(F)cc3)c2-c2ccnc(N)n2)CC(C)(C)N1
-1.76
3. NC(=O)c1ccc2c(-c3ccnc(NCCCO)n3)c(-c3ccc(F)cc3)nn2c1
4.79
4. NS(=O)(=O)c1cccc(N/C=C2\C(=O)Nc3ccccc32)c1
-1.56
5. CN(c1ccc(NC(=O)NCCN2CCOCC2)cc1)c1ccnc(Nc2ccc(CS(C)(=O)=O)cc2)n1
1.22
6. CCCNc1cccc(-n2ncc3c(N/N=C/c4ccncc4)ncnc32)c1
7.86
7. COc1ccc(Nc2ncc(-c3ccccc3)o2)cc1OC
2.69
8. N#Cc1ccc2c(-c3ccnc(NC4CC4)n3)c(-c3ccc(F)cc3)nn2c1
-0.99
9. CC1=C(C(=O)Nc2ccc3[nH]ncc3c2)C(c2ccc(F)cc2)N=C(c2ccc(C(F)(F)F)nc2)N1 (centres undefined)
1.21

====

target_system: Tyrosine-protein kinase Fgr (Homo sapiens) (UniProt P09769);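 note: value reported as mean kinase inhibition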
Sequence (P09769 2-529 limits assumed): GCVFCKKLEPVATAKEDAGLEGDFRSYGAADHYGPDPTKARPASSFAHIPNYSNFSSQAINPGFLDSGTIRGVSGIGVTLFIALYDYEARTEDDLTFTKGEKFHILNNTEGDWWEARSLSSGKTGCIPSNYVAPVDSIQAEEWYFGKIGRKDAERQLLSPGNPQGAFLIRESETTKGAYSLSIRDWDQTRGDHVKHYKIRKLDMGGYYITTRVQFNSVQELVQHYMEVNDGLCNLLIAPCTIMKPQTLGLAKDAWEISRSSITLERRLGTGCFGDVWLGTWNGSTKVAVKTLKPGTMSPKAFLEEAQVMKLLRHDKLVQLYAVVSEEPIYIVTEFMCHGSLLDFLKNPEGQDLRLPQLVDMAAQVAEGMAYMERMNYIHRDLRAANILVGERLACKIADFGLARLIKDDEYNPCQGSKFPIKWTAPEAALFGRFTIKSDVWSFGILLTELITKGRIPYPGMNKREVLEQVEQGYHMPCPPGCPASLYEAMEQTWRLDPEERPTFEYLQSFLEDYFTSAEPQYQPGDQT
stated_conditions: at 1 µM
Below is a list of entries, each paired with its recorded inhibition value.
value_type: inhibition (%)

1. Cn1c(-c2nonc2N)nc2cnccc21
3.33
2. CNC(=O)c1ncccc1Nc1nc(Nc2cc3c(cc2OC)CCCN3C(=O)CN(C)C)nc2[nH]ccc12
7.26
3. O=C(O[C@H]1CN[C@H](C#Cc2cc3ncnc(Nc4ccc5c(ccn5Cc5cc(F)ccc5F)c4)c3s2)C1)N1CCOCC1
2.6

====

target_system: Tyrosine-protein kinase Srms (Homo sapiens)
stated_conditions: at 1 µM
Below is a list of entries, each paired with its recorded inhibition value.
value_type: inhibition

1) CS(=O)(=O)CCNCc1ccc(-c2ccc3ncnc(Nc4ccc(OCc5ccccc5)cc4)c3c2)o1
2.59%
2) FC(F)(F)CNc1nccc(-c2cnn3ncccc23)n1
-3.04%
3) O=C(Nc1n[nH]c2nnc(-c3cccnc3)cc12)C1CC1
0.54%
4) NS(=O)(=O)c1ccc(N/N=C2\C(=O)Nc3ccc(C(=O)NCc4ccncc4)cc32)cc1
1.01%
5) OCCCNc1nccc(-c2c(-c3ccc(F)cc3)nn3cc(C(F)(F)F)ccc23)n1
-0.71%
6) CCS(=O)(=O)c1ccc(OC)c(Nc2ncc(-c3cccc(F)c3)o2)c1
18.5%
7) CNC(=O)c1ncccc1Nc1nc(Nc2cc3c(cc2OC)CCCN3C(=O)CN(C)C)nc2[nH]ccc12
-0.71%
8) COc1c(C(N)=O)cc(-c2ccc(Cl)cc2)cc1-c1ccc(S(N)(=O)=O)cc1
-2.15%
9) c1cnn2ncc(-c3ccnc(NCCCN4CCOCC4)n3)c2c1
1.41%
10) CNC(=O)c1sc(-n2cnc3cc(OC)c(OC)cc32)cc1OCc1ccccc1C(F)(F)F
0.5%

====

target_system: Tyrosine-protein kinase CSK (Homo sapiens);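 note: each value is an averaged inhibition reading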
stated_conditions: at 1 µM
Below is a list of entries, each paired with its recorded inhibition value.
value_type: inhibition (%)

1. CS(=O)(=O)CCNCc1ccoc1-c1ccc2ncnc(Nc3ccc(OCc4ccccc4)cc3)c2c1
4.64
2. COc1cccc(Nc2nccc(-c3cnn4ncccc34)n2)c1
11.8
3. N#Cc1cccc(Nc2ncc(-c3ccccc3)o2)c1
5.14
4. COc1cc(N2CCN(C(C)C)CC2)ccc1Nc1nc(Nc2cccc(F)c2C(=O)O)c2cc[nH]c2n1
7.02

====

target_system: SRSF protein kinase 3 (Homo sapiens);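 note: values are mean inhibition of MSSK1 (alias of SRPK3)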
stated_conditions: at 1 µM
Below is a list of entries, each paired with its recorded inhibition value.
value_type: inhibition (%)

1. CS(=O)(=O)CCNCc1ccc(-c2ccc3ncnc(Nc4ccc(OCc5cccc(C(F)(F)F)c5)cc4)c3c2)o1
-0.47
2. c1cnn2ncc(-c3ccnc(NCCCN4CCOCC4)n3)c2c1
-0.57
3. FC(F)(F)CNc1nccc(-c2cnn3ncccc23)n1
-0.66
4. CN(c1ccc(NC(=O)NCCN2CCOCC2)cc1)c1ccnc(Nc2ccc(CS(C)(=O)=O)cc2)n1
2.7
5. Fc1cccc(COc2ccc(Nc3ncncc3C#Cc3ccccc3)cc2Cl)c1
0.58
6. CNC(=O)c1cncc(/C=C/c2ccccc2C)c1
3.21
7. CC(C)c1ccc(-c2cc(-c3c[nH]nc3-c3ccccn3)ccn2)cc1
0.11
8. Cn1c(-c2nonc2N)nc2cnccc21
-2.32
9. COC(=O)Nc1nc2cc(Oc3ccc(NC(=O)Nc4ccccc4)cc3)ccc2[nH]1
1.09
10. NS(=O)(=O)c1cccc(N/C=C2\C(=O)Nc3ccccc32)c1
0.27
11. COc1ccc(Nc2ncc(-c3ccccc3)o2)cc1OC
-2.17

====

Below is a list of entries, each paired with its recorded inhibition value.
target_system: Serine/threonine-protein kinase MRCK alpha (Homo sapiens) (UniProt Q5VT25);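 note: each value is an averaged percent inhibition of MRCK alpha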
Sequence (Q5VT25 whole entry): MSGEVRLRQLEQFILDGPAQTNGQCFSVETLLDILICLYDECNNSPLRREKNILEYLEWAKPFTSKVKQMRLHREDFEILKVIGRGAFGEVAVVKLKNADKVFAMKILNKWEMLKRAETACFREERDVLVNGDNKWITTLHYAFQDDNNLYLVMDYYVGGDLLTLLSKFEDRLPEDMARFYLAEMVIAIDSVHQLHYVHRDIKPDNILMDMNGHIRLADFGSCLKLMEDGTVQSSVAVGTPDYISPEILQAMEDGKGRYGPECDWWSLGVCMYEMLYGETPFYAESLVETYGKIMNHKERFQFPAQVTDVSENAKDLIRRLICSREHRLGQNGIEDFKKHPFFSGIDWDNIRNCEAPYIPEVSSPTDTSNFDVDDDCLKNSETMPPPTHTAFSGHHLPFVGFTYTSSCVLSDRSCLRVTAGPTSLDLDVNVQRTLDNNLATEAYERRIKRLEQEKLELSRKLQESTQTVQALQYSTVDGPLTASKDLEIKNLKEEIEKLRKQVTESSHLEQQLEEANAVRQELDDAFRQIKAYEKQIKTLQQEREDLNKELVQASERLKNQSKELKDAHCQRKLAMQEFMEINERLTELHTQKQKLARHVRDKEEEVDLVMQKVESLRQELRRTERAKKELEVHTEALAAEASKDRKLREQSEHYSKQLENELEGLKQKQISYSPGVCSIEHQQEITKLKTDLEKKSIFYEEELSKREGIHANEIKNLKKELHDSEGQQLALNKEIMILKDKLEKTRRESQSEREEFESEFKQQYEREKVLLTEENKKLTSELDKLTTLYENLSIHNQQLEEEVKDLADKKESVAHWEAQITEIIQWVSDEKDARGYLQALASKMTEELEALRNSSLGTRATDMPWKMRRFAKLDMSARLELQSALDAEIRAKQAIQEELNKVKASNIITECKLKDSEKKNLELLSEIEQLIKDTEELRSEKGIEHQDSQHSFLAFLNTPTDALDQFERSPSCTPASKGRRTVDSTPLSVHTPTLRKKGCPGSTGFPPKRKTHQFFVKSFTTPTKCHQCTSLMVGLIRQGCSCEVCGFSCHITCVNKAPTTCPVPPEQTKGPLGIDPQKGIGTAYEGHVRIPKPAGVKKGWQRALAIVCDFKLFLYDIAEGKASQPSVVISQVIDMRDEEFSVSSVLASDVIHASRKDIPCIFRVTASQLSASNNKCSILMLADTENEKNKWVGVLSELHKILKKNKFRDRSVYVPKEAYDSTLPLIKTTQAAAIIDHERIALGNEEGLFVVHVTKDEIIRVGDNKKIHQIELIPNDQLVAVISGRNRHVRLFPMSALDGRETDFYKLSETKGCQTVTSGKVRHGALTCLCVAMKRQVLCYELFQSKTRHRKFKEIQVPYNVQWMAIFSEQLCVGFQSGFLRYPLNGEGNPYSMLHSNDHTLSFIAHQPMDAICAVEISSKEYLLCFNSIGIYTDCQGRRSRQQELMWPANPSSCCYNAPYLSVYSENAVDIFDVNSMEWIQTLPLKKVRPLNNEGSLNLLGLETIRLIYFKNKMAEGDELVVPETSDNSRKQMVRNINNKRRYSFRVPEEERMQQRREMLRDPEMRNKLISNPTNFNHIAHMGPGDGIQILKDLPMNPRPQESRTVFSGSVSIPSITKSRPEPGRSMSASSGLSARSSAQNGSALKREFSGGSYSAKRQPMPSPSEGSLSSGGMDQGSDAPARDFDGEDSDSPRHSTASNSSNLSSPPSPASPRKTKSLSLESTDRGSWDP
stated_conditions: at 1 µM
value_type: inhibition (%)

1) O=C(O[C@H]1CN[C@H](C#Cc2cc3ncnc(Nc4ccc(OCc5cccc(F)c5)c(Cl)c4)c3s2)C1)N1CCOCC1
0.92
2) Fc1cccc(COc2ccc(Nc3ncncc3C#Cc3ccccc3)cc2Cl)c1
2.32
3) CCn1c(-c2nonc2N)nc2cncc(C(=O)NCCNC)c21
69.9
4) c1ccc(-c2n[nH]cc2-c2ccnc(-c3ccc(OCCn4ccnc4)cc3)c2)nc1
-0.54
5) COc1ccc(Nc2ncc(-c3ccccc3)o2)cc1OC
2.02
6) COc1ccc(-c2nn3ncccc3c2-c2ccnc(Nc3ccc(F)c(F)c3)n2)cc1
4.1

====

Below is a list of entries, each paired with its recorded inhibition value.
target_system: Tyrosine-protein kinase Tec (Homo sapiens) (UniProt P42680)
Sequence (whole entry): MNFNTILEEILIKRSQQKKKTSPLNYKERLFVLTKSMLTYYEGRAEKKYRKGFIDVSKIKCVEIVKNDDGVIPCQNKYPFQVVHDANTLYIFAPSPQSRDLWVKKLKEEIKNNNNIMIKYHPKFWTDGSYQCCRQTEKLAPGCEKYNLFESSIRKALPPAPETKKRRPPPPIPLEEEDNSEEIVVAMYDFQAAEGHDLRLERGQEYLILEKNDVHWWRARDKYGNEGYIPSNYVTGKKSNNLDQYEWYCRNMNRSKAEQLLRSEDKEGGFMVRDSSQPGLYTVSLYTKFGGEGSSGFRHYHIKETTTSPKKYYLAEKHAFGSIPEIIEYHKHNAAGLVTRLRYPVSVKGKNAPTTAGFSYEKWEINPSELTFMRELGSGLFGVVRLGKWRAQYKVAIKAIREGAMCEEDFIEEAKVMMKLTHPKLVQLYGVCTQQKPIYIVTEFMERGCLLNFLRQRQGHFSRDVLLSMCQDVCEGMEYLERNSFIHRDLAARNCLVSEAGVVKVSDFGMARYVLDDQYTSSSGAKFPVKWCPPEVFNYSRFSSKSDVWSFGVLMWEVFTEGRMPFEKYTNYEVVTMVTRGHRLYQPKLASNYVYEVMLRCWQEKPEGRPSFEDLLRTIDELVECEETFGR
stated_conditions: at 0.1 µM
Description: GSK_PKIS: TEC mean inhibition at 0.1 uM [Nanosyn]
value_type: inhibition (%)

1. NS(=O)(=O)c1ccc(N/N=C2\C(=O)Nc3cccc(CCc4ccncc4)c32)cc1
-0.23
2. CCOc1ccc2c(-c3ccnc(Nc4cc(OC)cc(C(F)(F)F)c4)n3)cnn2n1
2.25
3. Fc1ccc(Nc2nccc(-c3c(-c4ccc(C(F)(F)F)cc4)nn4ncccc34)n2)cc1F
4.32
4. CNC(=O)c1sc(-n2cnc3cc(OC)c(OC)cc32)cc1OCc1ccccc1C(F)(F)F
1.74
5. NS(=O)(=O)c1ccc(N/N=C2\C(=O)Nc3ccc(C(=O)NCc4ccncc4)cc32)cc1
3.82
